assayed-system: Hypoxia-inducible factor 1-alpha (Homo sapiens) (UniProt Q16665)
Sequence (Q16665 whole entry, looked up): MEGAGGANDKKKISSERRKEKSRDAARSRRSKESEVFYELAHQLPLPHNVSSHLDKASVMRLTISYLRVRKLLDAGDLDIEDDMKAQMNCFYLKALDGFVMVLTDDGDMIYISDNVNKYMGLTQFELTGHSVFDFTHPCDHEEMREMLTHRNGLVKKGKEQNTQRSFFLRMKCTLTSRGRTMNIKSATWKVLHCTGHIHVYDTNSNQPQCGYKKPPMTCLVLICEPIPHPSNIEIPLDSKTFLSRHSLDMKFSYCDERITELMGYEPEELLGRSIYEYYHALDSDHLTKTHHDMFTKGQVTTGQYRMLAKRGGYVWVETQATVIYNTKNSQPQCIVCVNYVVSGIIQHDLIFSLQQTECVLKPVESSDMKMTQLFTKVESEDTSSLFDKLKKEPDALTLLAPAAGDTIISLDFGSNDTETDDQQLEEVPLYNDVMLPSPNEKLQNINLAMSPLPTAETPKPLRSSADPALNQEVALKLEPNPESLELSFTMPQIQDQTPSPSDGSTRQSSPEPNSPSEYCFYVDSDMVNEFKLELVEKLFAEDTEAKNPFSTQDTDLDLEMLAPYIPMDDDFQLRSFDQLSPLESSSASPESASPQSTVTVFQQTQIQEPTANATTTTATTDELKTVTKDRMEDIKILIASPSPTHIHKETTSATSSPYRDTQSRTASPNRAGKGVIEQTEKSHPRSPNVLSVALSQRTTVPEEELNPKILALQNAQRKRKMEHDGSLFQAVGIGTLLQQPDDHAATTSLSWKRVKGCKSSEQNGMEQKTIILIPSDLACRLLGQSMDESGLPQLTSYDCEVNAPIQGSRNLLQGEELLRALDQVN
assay-remarks: activators of HIF1alpha nuclear accumulation, confirmation, imaging, fluorescence, U2OS GFP-HIF1alpha (AID 434951)
run-parameters: U2OS GFP-HIF1alpha nuclear intensity, high-content imaging
The source made the active and inactive calls.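 How the source made its calls: active means a fitted half-maximal concentration EC50 for the rise in nuclear signal no higher than ten times the top dose tested; inconclusive means flat fit with activity between 30% and 70%, or unusable fit; inactive means EC50 beyond ten times the top dose.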
Outcomes: t (active), f (inactive)

compound | class
CCCCc1c(C)nc(N)[nH]c1=O | f
O=C(N/N=C\c1cc(Cl)ccc1O)c1ccc(S(=O)(=O)N2CCCCC2)cc1 | t
CCOc1ccc(CCNC(=O)COC(=O)Cn2nc(C)c([N+](=O)[O-])c2C)cc1OCC | f
COc1cc(C(=O)Nc2sc(C)c(C)c2C(=O)O)cc(OC)c1OC | f
Cc1ccc(NC(=S)N(Cc2cccs2)Cc2cc3cccc(C)c3[nH]c2=O)cc1 | f
CCCc1sc(N/N=C/c2ccccn2)nc1-c1ccc(F)cc1 | t
O=C(NCCc1ccccc1)C1CCN(S(=O)(=O)c2ccc(-n3cnnn3)cc2)CC1 | f
CS(=O)(=O)c1ccc2nc(NC(=O)C3CC(=O)N(c4ccc(F)cc4)C3)sc2c1 (centres undefined) | f
Cc1sc2ncnc(Sc3nnnn3-c3ccc(Cl)cc3)c2c1C | f
Cn1nnc(NC(=O)c2cccc([N+](=O)[O-])c2)n1 | f
Cn1nnnc1N=N/C(=N/Nc1ccccc1)c1ccccc1 | t
O=C(N/N=C/c1cc(Br)ccc1O)c1cccc(N2CCCC2=O)c1 | t
O=C(NCc1ccccc1)C(=O)c1cn(CC(=O)N2CCOCC2)c2ccccc12 | f
COC(=O)c1ccc(C(C(=O)NCc2ccccc2)N(Cc2ccco2)C(=O)c2cnccn2)cc1 (centres undefined) | f
Cc1ccn2c(Nc3ccccc3C)c(-c3ccccn3)nc2c1 | t
C=CCN1C(=O)c2ccccc2Sc2ccc(C(=O)N3CCN(C)CC3)cc21 | f
Cc1ccc(N=Nc2ccc(O)c(/C=N\NC(=O)c3ccc(N)cc3)c2)cc1C | f
OCc1ccc(N=Nc2ccccc2)cc1 | f
CN(C(=O)COC(=O)c1ccc(F)c(S(=O)(=O)N2CCOCC2)c1)C1CCS(=O)(=O)C1 (centres undefined) | f
CC(=O)N(O)CCCCCNC(=O)CCC(=O)N(O)CCCCCNC(=O)CCC(=O)N(O)CCCCCN | t
Cc1nc([N+](=O)[O-])c(Br)n1Cc1ccc(Cl)c(Cl)c1 | f
Cc1cc(C)c(NS(=O)(=O)c2ccc3c(c2)NC(=O)CCS3)c(C)c1 | f
Oc1c(CN2CCc3ccccc3C2)cc(Cl)c2cccnc12 | t
CC1CCN(S(=O)(=O)c2ccc3c4c2CC(=O)N4CC(C)S3)CC1 (centres undefined) | f
COc1ccc(Cc2nnc(SCC(=O)NC3CCCCC3)n2C)cc1 | f
Cc1ccc(-c2nnn(CC(=O)N(Cc3cccs3)C(C(=O)NC3CCCCC3)c3ccco3)n2)o1 (centres undefined) | t
CCCN(CCC)C(C)C(=O)NCC1(c2ccccc2)CCCC1 (centres undefined) | f
COc1ccc(NC(=S)Nc2ccccn2)c(OC)c1 | f
Cc1c(Cl)c([N+](=O)[O-])nn1Cc1ccc(C(=O)N/N=C\c2cc(Cl)ccc2O)o1 | t
COC(=O)c1ccc(-n2cncn2)c([N+](=O)[O-])c1 | f
COC(=O)CN1C(=O)[C@H]2[C@@H](c3ccc(C)o3)N3C(=O)CN(CC4CC4)C(=O)[C@@]3(Cc3ccccc3)[C@H]2C1=O | f
Cc1[nH]n(-c2ccccc2)c(=O)c1N=Nc1ccc2c(c1)OCCO2 | f
CCN1CN(CCc2ccccc2)CNC1=S | f
Cc1nnsc1C(=O)N/N=C/c1ccc2ccccc2c1O | t
Oc1c(C(Nc2cccc(C(F)(F)F)c2)c2ccncc2)ccc2cccnc12 (centres undefined) | t
COc1ccc(N(CC(=O)Nc2cc(OC)ccc2OC)S(=O)(=O)c2c(C)noc2C)cc1 | f
N/C(=N\OC(=O)C(c1ccccc1)c1ccccc1)c1cccnc1 | f
O=C(NC1CCCC1)c1cc(-c2cccs2)on1 | t
COC(=O)/C(=C(/F)SCC(C)=O)C(F)(F)F | f
CCOCCCNC(=S)Nc1cc(C)cc(C)c1 | f
O=C(Nc1cccc(Cl)c1)Nc1cccc(C(=O)O)c1 | f
CCN(CC)S(=O)(=O)c1ccc(N2CCOCC2)c(NC(=O)c2cccc3ccccc23)c1 | f
COc1ccc(C(=O)CSc2nncn2C)cc1 | f
Oc1ccc(CN2CCN(Cc3ccccc3)CC2)c2cccnc12 | f

----------
assayed-system: Hypoxia-inducible factor 1-alpha (Homo sapiens) (UniProt Q16665)
assay-remarks: activators of HIF1alpha nuclear accumulation, confirmation, imaging, fluorescence, U2OS GFP-HIF1alpha (AID 434951)
run-parameters: U2OS GFP-HIF1alpha nuclear intensity, high-content imaging
Active and inactive are the calls of the source.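 Rule for the calls: active = a fitted half-maximal concentration EC50 for the rise in nuclear signal no higher than ten times the top dose tested; inconclusive = flat fit with activity between 30% and 70%, or unusable fit; inactive = EC50 beyond ten times the top dose.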
Outcome codes: active, inactive

molecule | assayed-system | class
Cn1c(CO)nc2c3ccccc3ccc21 | Hypoxia-inducible factor 1-alpha (Homo sapiens) (UniProt Q16665) | inactive
Cc1ccc(O)c(NC(=O)c2ccc3c(c2)C(=O)N(Cc2ccco2)C3=O)c1 | Hypoxia-inducible factor 1-alpha (Homo sapiens) (UniProt Q16665) | inactive
Oc1ccc2ccccc2c1N=Nc1ccccn1 | Hypoxia-inducible factor 1-alpha (Homo sapiens) (UniProt Q16665) | active
CCCC(=O)NC(c1ccccc1OC)c1ccc2cccnc2c1O (stereo not given) | Hypoxia-inducible factor 1-alpha (Homo sapiens) (UniProt Q16665) | active
COc1ccc(/C=N/NC(=O)c2cccnc2)cc1CN1CCN(c2ccc(F)cc2)CC1 | Hypoxia-inducible factor 1-alpha (Homo sapiens) (UniProt Q16665) | inactive
Cc1ccc(C(=O)Nc2cccc([N+](=O)[O-])c2)cc1S(=O)(=O)Nc1ccc(NC(=O)c2ccccc2)cc1 | Hypoxia-inducible factor 1-alpha (Homo sapiens) (UniProt Q16665) | inactive
O/N=C1/C2C3CC4C5C3C1C5C1(OCCO1)C42 (stereo not given) | Hypoxia-inducible factor 1-alpha (Homo sapiens) (UniProt Q16665) | inactive
CC1(C)CC(=O)C(C=NCCN2CCN(C(=S)Nc3cccc(Cl)c3)CC2)=C(O)C1 | Hypoxia-inducible factor 1-alpha (Homo sapiens) (UniProt Q16665) | inactive
O=C(N/N=C/c1ccc(O)c(O)c1O)/C(=C/c1ccc([N+](=O)[O-])cc1)NC(=O)c1ccccc1 | Hypoxia-inducible factor 1-alpha (Homo sapiens) (UniProt Q16665) | inactive
Cc1ccc(CNc2ccc3c(c2)nc(C)n3C)cc1 | Hypoxia-inducible factor 1-alpha (Homo sapiens) (UniProt Q16665) | inactive

----------
assayed-system: Hypoxia-inducible factor 1-alpha (Homo sapiens) (UniProt Q16665)
assay-remarks: activators of HIF1alpha nuclear accumulation, confirmation, imaging, fluorescence, U2OS GFP-HIF1alpha (AID 434951)
run-parameters: U2OS GFP-HIF1alpha nuclear intensity, high-content imaging
The source made the active and inactive calls.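 How the source made its calls: active means a fitted half-maximal concentration EC50 for the rise in nuclear signal no higher than ten times the top dose tested; inconclusive means flat fit with activity between 30% and 70%, or unusable fit; inactive means EC50 beyond ten times the top dose.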
Possible outcomes: yes (1) = active, no (0) = inactive

smiles-representation | assayed-system | class
O=C(c1cc(Br)ccc1Cl)N1CCC2(CC1)OCCO2 | Hypoxia-inducible factor 1-alpha (Homo sapiens) (UniProt Q16665) | no (0)
CCN(C(=O)CSc1ncn[nH]1)C1CCCCC1 | Hypoxia-inducible factor 1-alpha (Homo sapiens) (UniProt Q16665) | no (0)
Oc1ccc2ccccc2c1N=Nc1nccs1 | Hypoxia-inducible factor 1-alpha (Homo sapiens) (UniProt Q16665) | yes (1)
O=c1c2ccccc2nc(COc2ccccc2)n1/N=C/c1ccc(O)cc1O | Hypoxia-inducible factor 1-alpha (Homo sapiens) (UniProt Q16665) | yes (1)
c1cnc(N2CCN(c3ccc4ccccc4n3)CC2)nc1 | Hypoxia-inducible factor 1-alpha (Homo sapiens) (UniProt Q16665) | no (0)
CCOC(=O)c1cnc(-n2nc(C)cc2C)nc1NNc1nc(-c2ccccc2)cc(-c2ccccc2)n1 | Hypoxia-inducible factor 1-alpha (Homo sapiens) (UniProt Q16665) | yes (1)

----------
assayed-system: Hypoxia-inducible factor 1-alpha (Homo sapiens)
assay-remarks: activators of HIF1alpha nuclear accumulation, confirmation, imaging, fluorescence, U2OS GFP-HIF1alpha (AID 434951)
run-parameters: U2OS GFP-HIF1alpha nuclear intensity, high-content imaging
The source made the active and inactive calls.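 How the source made its calls: active means a fitted half-maximal concentration EC50 for the rise in nuclear signal no higher than ten times the top dose tested; inconclusive means flat fit with activity between 30% and 70%, or unusable fit; inactive means EC50 beyond ten times the top dose.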
Listed compounds paired with reported EC50
property-label: EC50

compound | property-label | measured-value
COc1ccc(CC(NC(C)=O)C(=O)NC2CCN(C(=O)Nc3ccc(Cl)cc3)CC2)cc1OC (configuration not stated) | EC50 | > 35 µM (inactive)
CCCC(=O)NC(c1cccs1)c1cc(Cl)c2cccnc2c1O (configuration not stated) | EC50 | 7.25 µM
COc1ccc2cc3cc(C(=O)N4CCN(c5ccccn5)CC4)oc3nc2c1 | EC50 | > 35 µM (inactive)
CC1CN/C(=C\C(=O)c2ccc(Br)cc2)C(=O)N1 (configuration not stated) | EC50 | > 35 µM (inactive)
COc1ccc(NC(=S)NCc2cccnc2)cc1 | EC50 | > 35 µM (inactive)
CC[C@@]1(O)C(=O)OCc2c1cc1n(c2=O)Cc2cc3c(N)cccc3nc2-1 | EC50 | > 35 µM (inactive)
CCc1nc(N2CCN(C(=O)c3ccco3)CC2)c2c3c(sc2n1)CCCC3 | EC50 | > 35 µM (inactive)
Cc1cc(C)c(C(=O)N2CCCC(N3CCN(c4cccc(C(F)(F)F)c4)CC3)C2)o1 (configuration not stated) | EC50 | > 35 µM (inactive)
CCOc1ccc(NC(=O)COc2ccccc2)c([N+](=O)[O-])c1 | EC50 | > 35 µM (inactive)
Cc1cc(OCC(=O)Nc2ccc3c(c2)OCCO3)cc(C)c1Cl | EC50 | > 35 µM (inactive)
c1ccc(CSC2=NNC(c3ccccn3)S2)cc1 (configuration not stated) | EC50 | 18.6 µM
COc1cccc(/C=N/NC(=O)CNC(=O)C(c2ccccc2)c2ccccc2)c1O | EC50 | > 35 µM (inactive)
N#Cc1ccccc1S(=O)(=O)N1CCN(c2cnccn2)CC1 | EC50 | > 35 µM (inactive)
CCN(CC)CCCNC(=O)C1c2ccccc2C(=O)N(C)C1c1ccc(OC)cc1 (configuration not stated) | EC50 | > 35 µM (inactive)
CCOc1ccc2c(c1)c1nnc(SCC3CCCO3)nc1n2C (configuration not stated) | EC50 | > 35 µM (inactive)
CCOC(=O)N1CCC(Nc2c(-c3ccccc3)c(=O)c2=O)CC1 | EC50 | > 35 µM (inactive)
CCCCC(=O)NC(c1ccccc1Cl)c1ccc2cccnc2c1O (configuration not stated) | EC50 | 3.16 µM
O=C(CSc1nc2ccccc2c(=O)[nH]1)Nc1ccc(Br)cc1 | EC50 | > 35 µM (inactive)
Cc1cccc2sc(NNC(=O)c3ccc(S(=O)(=O)N4CCc5ccccc5C4)cc3)nc12 | EC50 | 11.2 µM
CC1=NN2C(=N)/C(=C\c3cc(C)n(Cc4ccccc4)c3C)C(=O)N=C2S1 | EC50 | > 35 µM (inactive)
O=C(NCCc1csc(-c2cccc(F)c2)n1)c1ccco1 | EC50 | > 35 µM (inactive)
COc1ccc(CC(NC(C)=O)C(=O)NC2CCN(C(=O)c3cccc(Cl)c3)CC2)cc1OC (configuration not stated) | EC50 | > 35 µM (inactive)
